- System: T1, cynomolgus ROR1 on CHO-K1-cynoROR1 cells (cynomolgus monkey, UniProt A0A2K5WTX7 30-937)
- T1 construct: whole, on cells
- Assay Overview: flow cytometry, CHO-K1-cynoROR1 cells

{"columns": ["Binder", "MAX(MFI)"],
 "data": [
  ["PR303145 (antibody, human IgG1, V domains shown, HCAb (heavy chain-only, human IgG1 Fc), no light chain) VH: QVQLVESGGGLVKPGGSLRISCAASGFTFSNYNMSWIRQAPGKGVEWVSHISGSGRTIYYAESVKGRFTISRDNAKNSLYLQMNSLRAEDTAMYYCARDLSSGWYEDFDYWGQGTLVTVSS", "1.04e+07"],
  ["PR000374 (antibody, human IgG1, kappa, V domains shown, positive control; also called Bench marker 1) VH: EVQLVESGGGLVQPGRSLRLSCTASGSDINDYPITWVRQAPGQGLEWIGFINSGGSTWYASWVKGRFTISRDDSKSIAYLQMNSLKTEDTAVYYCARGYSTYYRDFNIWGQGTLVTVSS VL: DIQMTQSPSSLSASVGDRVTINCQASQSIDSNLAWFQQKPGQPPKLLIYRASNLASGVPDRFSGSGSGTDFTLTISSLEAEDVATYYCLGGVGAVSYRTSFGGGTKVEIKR", "1.05e+07"],
  ["PR303201 (antibody, human IgG1, V domains shown, HCAb (heavy chain-only, human IgG1 Fc), no light chain) VH: EVQLLESGGGLVQPGGSLRLSCAASGFTFSGNAMSWVRQAPGKGLEWVSAISGSGDKTYYAASVKGRFTISRDNSNNTVYLQMNSLRAEDTAVYYCEKGAFRTTMDYWGQGTLVTVSS", "1.07e+07"]
]}
